- assayed.target: KCNQ1/KCNE1 (IKs) (Homo sapiens, UniProt P51787)
- procedure.text: whole-cell patch clamp of IKs in KCNQ1/KCNE1-cotransfected HEK293 cells
- Assay type: cell-based
property: pIC50
Numbers only, as −log10 of the molar value.

// query pIC50 value for entry CN[C@H]1CC[C@@H](c2ccc(Cl)c(Cl)c2)c2ccccc21
4.91

====

- assayed.target: KCNJ2 (IK1) (Homo sapiens)
- Sequence (P63252 whole entry, species assumed): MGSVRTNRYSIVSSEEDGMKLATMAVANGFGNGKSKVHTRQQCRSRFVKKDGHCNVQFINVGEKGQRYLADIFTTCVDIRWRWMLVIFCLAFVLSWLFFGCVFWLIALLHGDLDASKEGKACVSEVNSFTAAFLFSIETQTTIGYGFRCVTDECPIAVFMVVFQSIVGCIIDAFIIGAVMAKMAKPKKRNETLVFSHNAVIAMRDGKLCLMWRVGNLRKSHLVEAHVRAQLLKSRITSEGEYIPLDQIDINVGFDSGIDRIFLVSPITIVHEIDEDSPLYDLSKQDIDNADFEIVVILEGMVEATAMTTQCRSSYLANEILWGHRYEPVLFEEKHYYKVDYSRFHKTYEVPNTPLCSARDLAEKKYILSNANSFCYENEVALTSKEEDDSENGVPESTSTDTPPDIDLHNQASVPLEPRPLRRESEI
- procedure.text: whole-cell patch clamp of IK1 in KCNJ2-transfected HEK293 cells
property: IC50 (µM)
Give bare numbers, in µM.

Which IC50 reading was recorded for the compound CN[C@H]1CC[C@@H](c2ccc(Cl)c(Cl)c2)c2ccccc21 ?
10.5

====

- assayed.target: hERG K+ channel (IKr) (Homo sapiens, UniProt Q12809)
- Sequence (Q12809 whole entry): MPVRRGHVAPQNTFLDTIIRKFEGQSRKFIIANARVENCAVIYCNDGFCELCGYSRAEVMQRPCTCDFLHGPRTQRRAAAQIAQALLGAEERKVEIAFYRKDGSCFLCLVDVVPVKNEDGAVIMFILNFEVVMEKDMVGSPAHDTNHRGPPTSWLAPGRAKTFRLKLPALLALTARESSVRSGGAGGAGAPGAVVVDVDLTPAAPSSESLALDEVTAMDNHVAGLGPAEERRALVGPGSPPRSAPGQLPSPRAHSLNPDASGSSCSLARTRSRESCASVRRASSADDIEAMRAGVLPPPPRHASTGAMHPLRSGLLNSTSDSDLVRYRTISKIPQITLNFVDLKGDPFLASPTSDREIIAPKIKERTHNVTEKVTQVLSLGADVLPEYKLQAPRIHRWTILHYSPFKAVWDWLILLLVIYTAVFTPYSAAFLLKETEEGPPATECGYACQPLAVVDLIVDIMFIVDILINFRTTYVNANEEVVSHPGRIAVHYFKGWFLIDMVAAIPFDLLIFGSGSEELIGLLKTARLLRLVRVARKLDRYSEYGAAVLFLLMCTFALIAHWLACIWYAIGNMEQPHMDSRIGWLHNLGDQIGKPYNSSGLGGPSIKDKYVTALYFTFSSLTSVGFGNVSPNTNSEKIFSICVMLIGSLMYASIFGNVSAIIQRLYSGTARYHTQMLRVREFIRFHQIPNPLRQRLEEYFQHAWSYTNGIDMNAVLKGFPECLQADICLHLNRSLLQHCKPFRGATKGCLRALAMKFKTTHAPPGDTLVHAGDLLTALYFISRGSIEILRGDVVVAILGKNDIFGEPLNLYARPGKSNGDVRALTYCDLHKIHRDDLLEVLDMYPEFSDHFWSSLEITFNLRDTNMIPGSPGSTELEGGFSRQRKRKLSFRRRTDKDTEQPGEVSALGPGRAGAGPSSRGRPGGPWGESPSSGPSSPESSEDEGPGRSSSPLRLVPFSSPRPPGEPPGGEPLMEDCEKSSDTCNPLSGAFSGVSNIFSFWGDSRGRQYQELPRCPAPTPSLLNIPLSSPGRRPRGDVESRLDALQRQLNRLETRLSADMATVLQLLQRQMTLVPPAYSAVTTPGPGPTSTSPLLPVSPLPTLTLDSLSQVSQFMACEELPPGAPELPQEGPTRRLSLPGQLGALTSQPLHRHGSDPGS
- procedure.text: whole-cell patch clamp of hERG
- Assay type: cell-based
- measurement.setup: human, HEK293 cells transiently transfected with hERG, pH 7.4
property: inhibition at 1 µM (%)
Answers are plain numbers, in %.

Return reported inhibition at 1 µM; argument: CN[C@H]1CC[C@@H](c2ccc(Cl)c(Cl)c2)c2ccccc21 [Sertraline]
7.9

====

- assayed.target: hERG K+ channel (IKr) (Homo sapiens, UniProt Q12809)
- procedure.text: whole-cell patch clamp of hERG
- Type: cell-based
- measurement.setup: human, HEK293 cells transiently transfected with hERG, pH 7.4
property: inhibition at 3 µM
Value and unit, in that order.

Please look up its inhibition at 3 µM: CN[C@H]1CC[C@@H](c2ccc(Cl)c(Cl)c2)c2ccccc21 [Sertraline]
24.2%

====

- assayed.target: hERG K+ channel (Homo sapiens, UniProt Q12809)
- Sequence (Q12809 whole entry): as above
- procedure.text: whole-cell patch clamp of hERG
property: IC50 (nM)
Numbers only, in nM.

Which IC50 is reported with hERG K+ channel (Homo sapiens, UniProt Q12809) for this entry: CN[C@H]1CC[C@@H](c2ccc(Cl)c(Cl)c2)c2ccccc21 [Sertraline] ?
700
